# credit: patent US4523033A

# experiment.description: Tissue distribution of radioactivity in rats after intravenous administration
# Assay type: in vivo
# condition.description: rat, thyroid, iv, 5 min, read-out: Distribution of radioactivity, Thyroid

>  <compound.structure.string>
O=C(O)CCCC[Te]CCCCCCCCCc1ccc([125I])cc1

>  <tissue uptake at 5 min (%ID/g)>
1.52

$$$$

----------
# experiment.description: Tissue distribution of radioactivity in rats after intravenous administration
# Assay type: in vivo
# condition.description: rat, lungs, iv, 30 min, read-out: Distribution of radioactivity, Lungs
readout.label: tissue uptake at 0.5 h (%ID/g)

>  <compound.structure.string>
O=C(O)CCCC[Te]CCCCCCCCCc1ccc([125I])cc1

>  <unit.tag>
%ID/g

>  <reported.measurement>
1.25

$$$$
